Values from PubChem BioAssay (NCI)

System: EKVX NSCLC
Experiment: NCI tumour cell line growth inhibition, 48 h
Collected TGI values appear next to each entry.
Property label: TGI

[[record]]
compound = "Nc1nc(Cl)cc(N=Nc2ccccc2)n1"
experimental_target = "EKVX NSCLC"
property_label = "TGI"
measured = "> 100 µM"

[[record]]
compound = "CC1(C)CCC[C@]23C(=O)O[C@](O)(C(=O)C4=C[C@@](C)(/C=C/CCCc5ccc6ccc7cccc8ccc5c6c78)CC[C@@]42O)[C@@H]13"
experimental_target = "EKVX NSCLC"
property_label = "TGI"
measured = "0.485 µM"

[[record]]
compound = "Clc1nc(-[n+]2ccc(-c3ccncc3)cc2)nc(Nc2ccccc2)c1Cl"
experimental_target = "EKVX NSCLC"
property_label = "TGI"
measured = "> 100 µM"

[[record]]
compound = "OC(c1ccc(Cl)cc1)(c1ccc(Cl)cc1)C(O)(c1ccc(Cl)cc1)c1ccc(Cl)cc1"
experimental_target = "EKVX NSCLC"
property_label = "TGI"
measured = "> 100 µM"

[[record]]
compound = "CCOC(=O)C1N(S(=O)(=O)c2ccc(C)cc2)CCC12c1ccccc1N(C(C)=O)C2C(/C=C/C(=O)OC)=C/C(=O)OC (centres undefined)"
experimental_target = "EKVX NSCLC"
property_label = "TGI"
measured = "> 100 µM"

[[record]]
compound = "N/C(=N\\NS(=O)(=O)c1ccccc1)Oc1ccc(Cl)cc1"
experimental_target = "EKVX NSCLC"
property_label = "TGI"
measured = "> 100 µM"

[[record]]
compound = "COc1cc(C2C3=C(CCC3=O)Oc3cc4c(cc32)OCO4)cc(OC)c1OC (centres undefined)"
experimental_target = "EKVX NSCLC"
property_label = "TGI"
measured = "> 100 µM"

[[record]]
compound = "Cc1ccc2c(c1)C(=O)c1c-2n(CCCN)c(=O)c2cc([N+](=O)[O-])ccc12"
experimental_target = "EKVX NSCLC"
property_label = "TGI"
measured = "2.22 µM"

[[record]]
compound = "Cc1cc(S(=O)(=O)Nc2nnc3c(C(F)(F)F)cc(Cl)cn23)c(S)cc1Cl"
experimental_target = "EKVX NSCLC"
property_label = "TGI"
measured = "> 100 µM"

